- measured_target: HLA-B*15:01
- method_notes: IEDB peptide-MHC binding, purified MHC/competitive/fluorescence; filed as Kd, often an IC50 or EC50 that approximates it; bounds were set here for any values at or beyond the usual limits of such assays
- condition_summary: source organism: Vibrio cholerae 2740-80
value_type: Kd

For the sequence shown here, VQPWLMVDV , give the reported Kd.
≥ 20 µM

----------
- measured_target: HLA-A*26:01
- method_notes: IEDB peptide-MHC binding, purified MHC/direct/fluorescence; filed as Kd, often an IC50 or EC50 that approximates it; bounds were set here for any values at or beyond the usual limits of such assays
- condition_summary: source organism: Cryptosporidium parvum
value_type: pKd
Answers are plain numbers, as −log10 of the molar value.

For the sequence shown here, DFIGKTIGF , give the reported pKd.
6.73
